Target: human μ opiate receptor (Homo sapiens)
Construct: purchased PerkinElmer Life Sciences, Zaventem, Belgium RB-HOM; host or cells: CHO-K1 cells (membrane preparation)
Experiment: Affinity for human μ opiate receptor ([3H]-naloxone displacement, SPA)
Format: binding
Conditions: 1 μM test substance; inhibition of specific [3H]-naloxone binding; read-out: μ opioid receptor, % inhibition [1 μM]
# cutoff 60% applies to inhibition at 1 µM; >= gives criterion met, < gives criterion not met

Molecule: CN(C)C(c1ccccc1)C1CCC(C=Cc2nc(Cc3ccc(Cl)cc3)no2)CC1 (centres unmarked)
Group Label: criterion not met
--
Molecule: CN(C)C(c1ccccc1)C1CCC(CCc2nc(Cc3ccc(Cl)cc3)no2)CC1 (centres unmarked)
Group Label: criterion met
--
Molecule: CN(C)C(c1ccccc1)C1CCC(CCc2nc(-c3ccc(F)cc3F)no2)CC1 (centres unmarked)
Group Label: criterion met
--
Molecule: CN(C)C(c1ccccc1)C1CCC(Cc2nc(-c3ccccc3)no2)CC1 (centres unmarked)
Group Label: criterion met
--
Molecule: Cc1cccc(-c2noc(CC3CCC(C(c4ccccc4)N(C)C)CC3)n2)c1 (centres unmarked)
Group Label: criterion not met
--
Molecule: CN(C)C(c1ccccc1)C1CCC(Cc2nc(-c3cccc(Cl)c3)no2)CC1 (centres unmarked)
Group Label: criterion not met
--
Molecule: Cc1ccc(-c2noc(C=CC3CCC(C(c4cccs4)N(C)C)CC3)n2)n1C (centres unmarked)
Group Label: criterion not met
--
Molecule: Cc1cccc(-c2noc(C=CC3CCC(C(c4ccccc4)N(C)C)CC3)n2)c1 (centres unmarked)
Group Label: criterion not met

====

Molecular target: human μ opiate receptor (Homo sapiens)
Construct: purchased PerkinElmer Life Sciences, Zaventem, Belgium RB-HOM; host or cells: CHO-K1 cells (membrane preparation)
Assay: Affinity for human μ opiate receptor ([3H]-naloxone displacement, SPA)
Format: binding
Conditions: 1 μM test substance; inhibition of specific [3H]-naloxone binding; read-out: μ opioid receptor, % inhibition [1 μM]

Molecule: CN(C)C(c1ccccc1)C1CCC(=Cc2nc(-c3ccccc3)no2)CC1 (stereo not shown)
Unit Of Measurement: %
inhibition at 1 µM: 40
//
Molecule: CN(C)C(c1cccc(F)c1)C1CCC(Cc2nc(-c3ccccc3)no2)CC1 (stereo not shown)
Unit Of Measurement: %
inhibition at 1 µM: 41
//
Molecule: COc1ccc(Cc2noc(C=C3CCC(C(c4ccccc4)N(C)C)CC3)n2)cc1 (stereo not shown)
Unit Of Measurement: %
inhibition at 1 µM: 43
//
Molecule: CN(C)C(c1ccc(F)cc1)C1CCC(=Cc2nc(-c3cccc(Cl)c3Cl)no2)CC1 (stereo not shown)
Unit Of Measurement: %
inhibition at 1 µM: 53

====

Target: human μ opiate receptor (Homo sapiens, UniProt P35372)
Construct: purchased PerkinElmer Life Sciences, Zaventem, Belgium RB-HOM; host or cells: CHO-K1 cells (membrane preparation)
Sequence (P35372 whole entry): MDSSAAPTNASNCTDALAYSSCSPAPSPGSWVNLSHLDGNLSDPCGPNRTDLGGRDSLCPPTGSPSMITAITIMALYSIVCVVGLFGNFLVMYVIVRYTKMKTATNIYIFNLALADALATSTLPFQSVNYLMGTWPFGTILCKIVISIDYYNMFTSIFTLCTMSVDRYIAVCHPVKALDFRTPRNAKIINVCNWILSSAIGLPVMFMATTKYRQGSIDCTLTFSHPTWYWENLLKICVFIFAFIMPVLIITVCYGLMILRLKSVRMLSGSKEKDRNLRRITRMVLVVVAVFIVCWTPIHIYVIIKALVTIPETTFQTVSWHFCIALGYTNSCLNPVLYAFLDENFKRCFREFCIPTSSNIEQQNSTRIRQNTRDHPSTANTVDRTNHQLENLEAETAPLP
Experiment: Affinity for human μ opiate receptor ([3H]-naloxone displacement, SPA)
Format: binding
Conditions: 1 μM test substance; inhibition of specific [3H]-naloxone binding; read-out: μ opioid receptor, % inhibition [1 μM]
The following compounds are shown together with reported inhibition at 1 µM values.

Compound: Cc1cccc(-c2noc(CCC3CCC(C(c4ccccc4)N(C)C)CC3)n2)c1 (stereo not drawn)
inhibition at 1 µM / %: 45

Compound: Cc1cccc(-c2noc(C=C3CCC(C(c4ccccc4)N(C)C)CC3)n2)c1 (stereo not drawn)
inhibition at 1 µM / %: 44

Compound: CN(C)C(c1cccs1)C1CCC(C=Cc2nc(Cc3ccc(Cl)cc3)no2)CC1 (stereo not drawn)
inhibition at 1 µM / %: 52

Compound: Cc1cccc(-c2noc(C=CC3CCC(C(c4cccs4)N(C)C)CC3)n2)c1 (stereo not drawn)
inhibition at 1 µM / %: 48

Compound: CN(C)C(c1ccccc1)C1CCC(Cc2nc(-c3cccc(Cl)c3Cl)no2)CC1 (stereo not drawn)
inhibition at 1 µM / %: 56

Compound: CN(C)C(c1ccccc1)C1CCC(Cc2nc(Cc3ccc(Cl)cc3)no2)CC1 (stereo not drawn)
inhibition at 1 µM / %: 83

Compound: COc1ccc(Cc2noc(CCC3CCC(C(c4ccccc4)N(C)C)CC3)n2)cc1 (stereo not drawn)
inhibition at 1 µM / %: 43

Compound: CN(C)C(c1ccccc1)C1CCC(CCc2nc(-c3cccc(Cl)c3Cl)no2)CC1 (stereo not drawn)
inhibition at 1 µM / %: 51

Compound: COc1ccc(Cc2noc(CC3CCC(C(c4ccccc4)N(C)C)CC3)n2)cc1 (stereo not drawn)
inhibition at 1 µM / %: 66
